Test system: MDA-MB-468 spheroids with HUVEC/MSC, viability
Assay: Anticancer human tumor MDA-MB-468 cell line growth inhibition [PI3K];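 note: spheroids exposed to agents for seven days before readout; 100% = DMSO vehicle control viability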
Conditions: second compound 0.316 µM; first compound 10 µM; hits give low values
property_name: viability, T/C (%)
Give bare numbers, in %.

Please review the following examples before continuing.
# compound, tested_system, result_number
data = [
    ("Cn1nccc1Nc1nccc(-c2ccn(C(CO)c3ccc(Cl)c(F)c3)c(=O)c2)n1 (stereo unspecified) + CC(Nc1ncnc2nc[nH]c12)c1cc2cccc(Cl)c2c(=O)n1-c1ccccc1", "MDA-MB-468 spheroids with HUVEC/MSC, viability", 78.9),
    ("CC(C)NCC(C(=O)N1CCN(c2ncnc3c2C(C)CC3O)CC1)c1ccc(Cl)cc1 (stereo unspecified) + Cc1nc(NC(=O)N2CCCC2C(N)=O)sc1-c1ccnc(C(C)(C)C(F)(F)F)c1", "MDA-MB-468 spheroids with HUVEC/MSC, viability", 19.5),
    ("CC(Cn1ccc(-c2ccc(C#N)c(Cl)c2)n1)NC(=O)c1cc(C(C)O)[nH]n1 (stereo unspecified) + CC(Nc1ccc2c(c1)OCCn1cc(N3C(=O)OCC3C(F)F)nc1-2)C(N)=O", "MDA-MB-468 spheroids with HUVEC/MSC, viability", 64.5),
    ("CC1(C)CCC(Nc2ncc(C(F)(F)F)c(-c3c[nH]c4c(P(C)(C)=O)c(C#N)ccc34)n2)CN1 (stereo unspecified) + Cc1nc(NC(=O)N2CCCC2C(N)=O)sc1-c1ccnc(C(C)(C)C(F)(F)F)c1", "MDA-MB-468 spheroids with HUVEC/MSC, viability", 1.34),
    ("C[C@@H](NC(=O)c1ncnc(N)c1Cl)c1ncc(C(=O)Nc2cc(C(F)(F)F)c(Cl)cn2)s1 + CC(Nc1ccc2c(c1)OCCn1cc(N3C(=O)OCC3C(F)F)nc1-2)C(N)=O", "MDA-MB-468 spheroids with HUVEC/MSC, viability", 68.2),
]

I would be grateful if you could provide viability, T/C for each of the following entries.
1. Cn1ncc(Cl)c1-c1cc(C(=O)NC(CN)Cc2cccc(F)c2)sc1Cl (stereo unspecified) + CC(Nc1ccc2c(c1)OCCn1cc(N3C(=O)OCC3C(F)F)nc1-2)C(N)=O
2. Cn1nccc1Nc1nccc(-c2ccn(C(CO)c3ccc(Cl)c(F)c3)c(=O)c2)n1 (stereo unspecified) + COc1c(OCCCN2CCOCC2)ccc2c3n(c(=NC(=O)c4cnc(N)nc4)nc12)CCN3
3. Cn1ncc(Cl)c1-c1cc(C(=O)NC(CN)Cc2cccc(F)c2)sc1Cl (stereo unspecified) + CC(Nc1ncnc2nc[nH]c12)c1cc2cccc(Cl)c2c(=O)n1-c1ccccc1
4. C=CC(=O)N1CCN(c2nc(=O)n(-c3c(C)ccnc3C(C)C)c3nc(-c4c(O)cccc4F)c(F)cc23)C(C)C1 (stereo unspecified) + COc1c(OCCCN2CCOCC2)ccc2c3n(c(=NC(=O)c4cnc(N)nc4)nc12)CCN3
5. CNC(=O)c1ccc(N2C(=S)N(c3ccc(C#N)c(C(F)(F)F)c3)C(=O)C2(C)C)cc1F + COc1c(OCCCN2CCOCC2)ccc2c3n(c(=NC(=O)c4cnc(N)nc4)nc12)CCN3

Reply text:
[4.28, 19.9, 18.6, 18.4, 20.8]

Report viability, T/C for every entry below.
1. C=CC(=O)N1CCN(c2nc(=O)n(-c3c(C)ccnc3C(C)C)c3nc(-c4c(O)cccc4F)c(F)cc23)C(C)C1 (stereo unspecified) + Cc1nc(NC(=O)N2CCCC2C(N)=O)sc1-c1ccnc(C(C)(C)C(F)(F)F)c1
2. C=CC(=O)N1CCN(c2nc(=O)n(-c3c(C)ccnc3C(C)C)c3nc(-c4c(O)cccc4F)c(F)cc23)C(C)C1 (stereo unspecified) + CC(Nc1ccc2c(c1)OCCn1cc(N3C(=O)OCC3C(F)F)nc1-2)C(N)=O
3. C#Cc1c(F)ccc2cc(O)cc(-c3ncc4c(N5CC6CCC(C5)N6)nc(OCC56CCCN5CC(F)C6)nc4c3F)c12 (stereo unspecified) + Cc1nc(NC(=O)N2CCCC2C(N)=O)sc1-c1ccnc(C(C)(C)C(F)(F)F)c1
4. CNC(=O)c1ccc(N2C(=S)N(c3ccc(C#N)c(C(F)(F)F)c3)C(=O)C2(C)C)cc1F + CC(Nc1ncnc2nc[nH]c12)c1cc2cccc(Cl)c2c(=O)n1-c1ccccc1

Reply text:
1: 57.5; 2: 55.9; 3: 24.7; 4: 61.1

Provide each entry's viability, T/C from the list below.
1. CC1(C)CCC(CN2CCN(c3ccc(C(=O)NS(=O)(=O)c4ccc(NCC5CCOCC5)c([N+](=O)[O-])c4)c(Oc4cnc5[nH]ccc5c4)c3)CC2)=C(c2ccc(Cl)cc2)C1 + CC(Nc1ccc2c(c1)OCCn1cc(N3C(=O)OCC3C(F)F)nc1-2)C(N)=O
2. C#Cc1c(F)ccc2cc(O)cc(-c3ncc4c(N5CC6CCC(C5)N6)nc(OCC56CCCN5CC(F)C6)nc4c3F)c12 (stereo unspecified) + CC(Nc1ccc2c(c1)OCCn1cc(N3C(=O)OCC3C(F)F)nc1-2)C(N)=O
3. CC(Cn1ccc(-c2ccc(C#N)c(Cl)c2)n1)NC(=O)c1cc(C(C)O)[nH]n1 (stereo unspecified) + Cc1nc(NC(=O)N2CCCC2C(N)=O)sc1-c1ccnc(C(C)(C)C(F)(F)F)c1

Reply text:
1: 8.04; 2: 36.4; 3: 54
